Source listed as ChEMBL document CHEMBL4619826.

# Test system: Thoracic aorta
# assay comment: Contractile activity in Sprague-Dawley rat thoracic aorta assessed as contraction in aortic ring preincubated ofr 30 mins followed by URP or human U2-stimulation
# Format: functional, tissue-based
measured parameter: EC50 (µM)

Observe how each entry below is paired with its result.
molecule: CC(C)[C@H](NC(=O)[C@@H]1CSSC[C@H](NC(=O)[C@H](C)N)C(=O)N[C@@H](Cc2ccccc2)C(=O)N[C@H](Cc2ccc(C#Cc3ccccc3)cc2)C(=O)N[C@@H](CCCCN)C(=O)N[C@@H](Cc2ccc(O)cc2)C(=O)N1)C(=O)O
unit abbreviation: µM
EC50: 0.0282

molecule: CC(C)[C@H](NC(=O)[C@@H]1CSSC[C@H](NC(=O)[C@H](C)N)C(=O)NC(Cc2ccccc2)C(=O)N[C@H](Cc2ccc(I)cc2)C(=O)N[C@@H](CCCCN)C(=O)N[C@@H](Cc2ccc(O)cc2)C(=O)N1)C(=O)O (stereo in doubt)
unit abbreviation: µM
EC50: 0.0288

A. CC(C)[C@H](NC(=O)[C@@H]1CSSC[C@H](NC(=O)[C@H](C)N)C(=O)N[C@@H](Cc2ccccc2)C(=O)N[C@H](Cc2ccc(-c3ccccc3)cc2)C(=O)N[C@@H](CCCCN)C(=O)N[C@@H](Cc2ccc(O)cc2)C(=O)N1)C(=O)O
B. CC(C)[C@H](NC(=O)[C@@H]1CSSC[C@H](NC(=O)[C@H](C)N)C(=O)N[C@@H](Cc2ccccc2)C(=O)N[C@@H](Cc2c[nH]c3ccccc23)C(=O)N[C@@H](CCCCN)C(=O)N[C@@H](Cc2ccc(O)cc2)C(=O)N1)C(=O)O
Inquiry: Hi, I'm comparing A with B and wondering which one has the bigger number for EC50. Any idea? Refer to your chosen item by its label in the answer.
Reply text: A

* * *

# Tested on: Thoracic aorta
# assay comment: Contractile activity in Sprague-Dawley rat thoracic aorta assessed as contraction in aortic ring preincubated ofr 30 mins followed by URP-stimulation (reference value: 8.16 +/- 0.08)
# Type: functional, tissue-based
measured parameter: EC50 (nM)

1. CC(C)[C@H](NC(=O)[C@@H]1CSSC[C@H](NC(=O)[C@H](C)N)C(=O)N[C@@H](Cc2ccccc2)C(=O)N[C@@H](Cc2ccc(-c3ccsc3)cc2)C(=O)N[C@@H](CCCCN)C(=O)N[C@@H](Cc2ccc(O)cc2)C(=O)N1)C(=O)O
2. CC(C)[C@H](NC(=O)[C@@H]1CSSC[C@H](NC(=O)[C@H](C)N)C(=O)N[C@@H](Cc2ccccc2)C(=O)N[C@@H](Cc2ccc(-c3cccnc3)cc2)C(=O)N[C@@H](CCCCN)C(=O)N[C@@H](Cc2ccc(O)cc2)C(=O)N1)C(=O)O
Inquiry: Hi, I'm comparing 1 with 2 and wondering which one has the bigger number for EC50. Any idea? Refer to your chosen item by its label in the answer.
Reply text: 1
(1: 12.9 nM, 2: 8.51 nM)

* * *

# Tested on: Thoracic aorta
# assay comment: Contractile activity in Sprague-Dawley rat thoracic aorta assessed as contraction in aortic ring preincubated ofr 30 mins followed by URP or human U2-stimulation
# Type: functional, tissue-based
measured parameter: EC50 (nM)
Give the number; nM is assumed, so skip it.

Inquiry: Tell me its EC50 on Thoracic aorta: CC(C)[C@H](NC(=O)[C@@H]1CSSC[C@H](NC(=O)[C@H](C)N)C(=O)N[C@@H](Cc2ccccc2)C(=O)N[C@@H](Cc2ccc(-c3ccc(-c4ccccc4)cc3)cc2)C(=O)N[C@@H](CCCCN)C(=O)N[C@@H](Cc2ccc(O)cc2)C(=O)N1)C(=O)O
Reply text: 7.76
